Tested on: Staphylococcus aureus MW2 delta-mecA (mecA-)
Assay: IC50 (growth, competition assay)
Conditions: fluorescent label: DsRed; cefoxitin: subinhibitory
Where a name gives a salt, the structure may show the parent alone.
property-name: IC50 (µM)
Numbers only, in µM.

The cases that follow already have their IC50 on record.
compound	system-tested	IC50 / µM
O=C1OC(c2ccc(O)cc2)(c2ccc(O)cc2)c2ccccc21	Staphylococcus aureus MW2 delta-mecA (mecA-)	49.7
CCn1cc(C(=O)O)c(=O)c2cnc(N3CCNCC3)nc21	Staphylococcus aureus MW2 delta-mecA (mecA-)	64.9
CCCCC(CC)COC(=O)CC(C(=O)OCC(CC)CCCC)S(=O)(=O)O (stereo unspecified)	Staphylococcus aureus MW2 delta-mecA (mecA-)	18

Kindly give each listed record's IC50.
1. Cc1cc(CC(C)CC(C)(C)C)n(O)c(=O)c1 (stereo unspecified)
2. N[C@@H]1CCCN(c2c(/C=C3\SC(=O)NC3=O)cccc2-c2ccccc2)C1

[89.5, 26.7]

Batch of 2 compounds: report IC50 for each.
1. C[C@@H]1CCO[C@H]2Cn3cc(C(=O)NCc4ccc(F)cc4F)c(=O)c(O)c3C(=O)N12
2. CC(C)c1ccc2c(c1)CC[C@H]1[C@](C)(CN)CCC[C@]21C [18-AMINOABIETA-8,11,13-TRIENE SULFATE]

1: 109; 2: 55.7

Give the value of IC50 reported for the following: COc1ccc2c(c[n+](C)c3c4cc5c(cc4ccc23)OCO5)c1OC [Chelerythrine chloride]
15

----------
Tested on: Staphylococcus aureus MW2 (mecA+)
Assay: IC50 (growth, competition assay)
Settings: fluorescent label: DsRed; cefoxitin: subinhibitory
Structures can show the parent of a compound that is named as a salt.
property-name: pIC50
Give bare numbers, as −log10 of the molar value.

Field: example entries. Status: answers known.
compound	test-value
O=c1cc(-c2ccc(O)c(O)c2)oc2cc(O)cc(O)c12	4.24
CC1(C)S[C@@H]2[C@H](NC(=O)[C@H](NC(=O)N3CCNC3=O)c3ccccc3)C(=O)N2[C@H]1C(=O)O [AZLIN]	4.49
C=C[C@](C)(O)CC[C@@H]1[C@@]2(C)CCCC(C)(C)[C@@H]2CC[C@@]1(C)O [Sclareol]	4.00
Cc1cc(CC(C)CC(C)(C)C)n(O)c(=O)c1 (stereo unspecified)	3.92
CCC(C)(C)C(=O)O[C@H]1C[C@@H](C)C=C2C=C[C@H](C)[C@H](CC[C@@H]3C[C@@H](O)CC(=O)O3)[C@H]21	3.89
CO[C@H]1C[C@H](O[C@H]2[C@H](C)[C@@H](O[C@@H]3O[C@H](C)C[C@H](N(C)C)[C@H]3OC(C)=O)[C@@H](C)C[C@@]3(CO3)C(=O)[C@H](C)[C@@H](OC(C)=O)[C@@H](C)[C@@H](C)OC(=O)[C@@H]2C)O[C@@H](C)[C@@H]1OC(C)=O	4.47

Field: pIC50. Fill in for each record below.
1. Cc1c(-c2ccc(O)cc2)n(Cc2ccc(OCCN3CCCCCC3)cc2)c2ccc(O)cc12 [Bazedoxifene HCl]
2. NC[C@H]1O[C@H](O[C@H]2[C@H](O)[C@@H](O[C@H]3O[C@H](CO)[C@@H](O)[C@H](N)[C@H]3O)[C@H](N)C[C@@H]2N)[C@H](N)C[C@@H]1O

1. 4.25
2. 4.80

Give one value of pIC50 per listed compound.
1. N[C@@H](Cc1cc(I)c(Oc2ccc(O)c(I)c2)c(I)c1)C(=O)O
2. COc1cc(/C=C/C(=O)CC(=O)/C=C/c2ccc(O)c(OC)c2)ccc1O [CURCUMIN]
3. CC[C@H]1OC(=O)[C@H](C)[C@@H](O[C@H]2C[C@@](C)(OC)[C@@H](O)[C@H](C)O2)[C@H](C)[C@@H](O[C@@H]2O[C@H](C)C[C@H](N(C)C)[C@H]2O)[C@](C)(O)C[C@@H](C)C(=O)[C@H](C)[C@@H](O)[C@]1(C)O [Erythromycin (E-Mycin)]
4. CCOc1nc2cccc(C(=O)OCc3oc(=O)oc3C)c2n1Cc1ccc(-c2ccccc2-c2noc(=O)[nH]2)cc1 [EDARBI]

1. 4.22
2. 4.57
3. 5.85
4. 4.73

For each listed entry, give its pIC50.
1. CN[C@H]1CC[C@@H](c2ccc(Cl)c(Cl)c2)c2ccccc21 [Sertraline hydrochloride]
2. CC(C)c1ccc2c(c1)CC[C@H]1[C@](C)(CN)CCC[C@]21C [18-AMINOABIETA-8,11,13-TRIENE SULFATE]

1. 4.02
2. 4.20

----------
Tested on: Staphylococcus aureus MW2 (mecA+)
Experiment: IC50 (growth, competition assay)
Conditions: fluorescent label: DsRed; cefoxitin: subinhibitory
Assignment: determine reported pIC50 for the given compounds.
One number for each entry, as −log10 of the molar value.

Consider the following illustrative entries.
> print(dat)
                              smiles.record  test.value
1  CCOC(=O)c1ccc(N2NC(=O)C(=Cc3ccc([N+](=O)[O-])o3)C2=O)cc1        4.23
2             CC(C)(c1ccc(O)cc1)c1ccc(O)cc1        4.37
3  COc1cc2ncnc(Nc3ccc(Oc4ccccc4)cc3)c2cc1OC        4.54
4  COc1ccc(NS(=O)(=O)c2sc3ccc(Cl)cc3c2C)cc1N1CCNCC1        3.99

Quote pIC50 reported for CC(C)c1cc2c(c(O)c1O)[C@@]1(C(=O)O)CCCC(C)(C)[C@@H]1CC2 please.
4.57

----------
Test system: Staphylococcus aureus MW2 (mecA+)
Experiment: IC50 (growth, competition assay)
Settings: fluorescent label: DsRed; cefoxitin: subinhibitory
property-name: pIC50
Answers are plain numbers, as −log10 of the molar value.

// each listed compound needs a value for pIC50
1. C[C@H]1COC2=C1C(=O)C(=O)c1c2ccc2c1CCCC2(C)C [Cryptotanshinone]
2. CCOc1nc2cccc(C(=O)OC(C)OC(=O)OC3CCCCC3)c2n1Cc1ccc(-c2ccccc2-c2nn[nH]n2)cc1 (stereo unspecified) [ATACAND]
3. CO[C@@]1(NC(=O)C(C(=O)O)c2ccc(O)cc2)C(=O)N2C(C(=O)O)=C(CSc3nnnn3C)CO[C@@H]21 (stereo partly specified) [MOXAM]
4. Cc1cc(C2CCCCC2)n(O)c(=O)c1 [Ciclopirox (Penlac)]
5. O=S(=O)(c1ccccc1)N(CC(F)(F)F)c1ccc(C(O)(C(F)(F)F)C(F)(F)F)cc1
6. CCOC(=O)C1=C(C)NC(C)=C(C(=O)OC)C1c1cccc(Cl)c1Cl (stereo unspecified) [PLENDIL]
7. C[C@H]1O[C@@H](n2cc(F)c(=O)[nH]c2=O)[C@H](O)[C@@H]1O [Doxifluridine]
8. C=C1C(=O)[C@]23[C@H](O)[C@H]1CC[C@H]2[C@@]12CO[C@]3(O)[C@@H](O)[C@@H]1C(C)(C)CC[C@@H]2O [Oridonin (Isodonol)]

[4.92, 5.00, 4.58, 4.72, 4.61, 4.52, 5.41, 4.53]

----------
System: Staphylococcus aureus MW2 (mecA+)
Test: IC50 (growth, competition assay)
Conditions: fluorescent label: DsRed; cefoxitin: subinhibitory
Where a name gives a salt, the structure may show the parent alone.
Provide the reported pIC50 of each item.
One number for each entry, as −log10 of the molar value.

Previously resolved entries follow.
molecule	pIC50
c1ccc2c(Cc3c[nH]c4ccccc34)c[nH]c2c1	4.17
CCN1C[C@H](C)n2c(c(O)c3c(=O)n(Cc4ccc(F)c(Cl)c4)nc(C(=O)NC)c32)C1=O	4.10
Cc1cncc(CN2CCC(=C3c4ccc(Cl)cc4CCc4cccnc43)CC2)c1 [Rupatadine Fumarate]	4.13
CC(C)(O)CC(=O)NCCn1ccc2ncnc(Nc3ccc(Oc4cccc(C(F)(F)F)c4)c(Cl)c3)c21	4.58
Cc1cc(-n2c(=O)[nH]c(=O)n(C)c2=O)ccc1Oc1ccc(SC(F)(F)F)cc1 [Toltrazuril]	4.46

Would you mind giving pIC50 for every molecule in the list below?
1. O=C(Nc1ccccc1)Nc1ccc(-c2ccc(C(=O)[C@@H]3CCC[C@H]3C(=O)O)cc2)cc1
2. Oc1ccc(Cl)c2cccnc12
3. NS(=O)(=O)c1ccc(-n2nc(C(F)(F)F)cc2-c2ccc(Cl)cc2)cc1

1: 4.64; 2: 4.57; 3: 4.03

Return pIC50 (reported value) for this molecule: CN[C@@H]1C[C@@H](c2ccc(Cl)c(Cl)c2)c2ccccc21 [Indatraline hydrochloride]
4.15

----------
Tested on: Staphylococcus aureus MW2 delta-mecA (mecA-)
Assay: IC50 (growth, competition assay)
Details: fluorescent label: DsRed; cefoxitin: subinhibitory
Where a name gives a salt, the structure may show the parent alone.
property-name: IC50 (µM)
Give bare numbers, in µM.

> print(dat)
                                   compound  property.name  test.value
1  C[C@H]1COC2=C1C(=O)C(=O)c1c2ccc2c1CCCC2(C)C [CRYPTOTANSHINONE]           IC50        11.3

Alright, here's another compound for you.
Output measured IC50 for this item: C[C@@H](NCCCc1cccc(C(F)(F)F)c1)c1cccc2ccccc12 [AMG-073 HCl (Cinacalcet hydrochloride)]
13.4
